- run-description: in vivo
- setup-conditions: rat, po
reported-property: LD50

compound	LD50
CCCCCCCCCCCCSN(C)C(=O)Oc1cccc2c1OC(C)(C)C2	> 125 mg/kg

In: Query: LD50; subject: `CN(Sc1cc(Cl)ccc1Cl)C(=O)Oc1cccc2c1OC(C)(C)C2`
Out: 25 to 125 mg/kg

In: Look at this compound and give its reported LD50. `CN(Sc1ccc(C(C)(C)C)cc1)C(=O)Oc1cccc2c1OC(C)(C)C2`
Out: 125 to 250 mg/kg

In: So what does the record say about LD50 for `Cc1ccc(SN(C)C(=O)Oc2cccc3c2OC(C)(C)C3)cc1` ?
Out: 25 to 125 mg/kg

In: What does the record list as LD50 for `CN(Sc1ccc([N+](=O)[O-])cc1)C(=O)Oc1cccc2c1OC(C)(C)C2` ?
Out: 25 to 60 mg/kg

In: # query: LD50 of entry `CCCCSN(C)C(=O)Oc1cccc2c1OC(C)(C)C2`
Out: 60 to 125 mg/kg

In: Need LD50 of `CN(Sc1ccc(Cl)cc1)C(=O)Oc1cccc2c1OC(C)(C)C2` , thanks.
Out: 25 to 41 mg/kg

In: Consider the compound shown here: `CN(Sc1ccc(F)cc1)C(=O)Oc1cccc2c1OC(C)(C)C2` What is its recorded LD50?
Out: 25 to 125 mg/kg

In: What does the data say about its LD50? Entry: CNC(=O)Oc1cccc2c1OC(C)(C)C2 [FURADAN, reference compound]
Out: 11 mg/kg
